# System: U-251
# methodNotes: NCI tumour cell line growth inhibition, 48 h
The source made the active and inactive calls. Cut-off read from the data, not from the text of the source: active = GI50 up to about 1.1 µM and inactive = higher.
resultType: GI50

{"molecule": "CC(=O)N(C)SCC(NC(=O)C(Cc1ccccc1)NC(=O)OCc1ccccc1)C(=O)NC(Cc1ccccc1)C(=O)NC(Cc1cn(C=O)c2ccccc12)C(=O)NC(CCCCNC(=O)OCc1ccccc1)C(=O)NC(C(=O)NC(CSN(C)C(C)=O)C(=O)NO)C(C)OCc1ccccc1 (stereo not drawn)", "GI50": "> 100 µM (inactive)"}
{"molecule": "CCC1C(=O)C[C@H]2[C@@H]3C(O)CC4=CC(=O)CC[C@]4(C)[C@H]3CC[C@]12C (stereo partly drawn)", "GI50": "> 50 µM (inactive)"}

From here, focus on the item given below.
Please report the recorded GI50 for C[C@H]1COC(c2ccccn2)=N1 .
> 100 µM (inactive)

---

# Tested on: SF-539
# methodNotes: NCI tumour cell line growth inhibition, 48 h
Calls of active or inactive are those of the source. Cut-off read from the data, not from the text of the source: active = GI50 up to about 1.1 µM and inactive = higher.
Hi! Could you answer with just one of these? TRUE for active, FALSE for inactive

Field: outcome | Entry: NCCCCNCCCNC(=O)c1nc(-c2nc(CCN)sc2Cl)sc1Cl
FALSE

Outcome? O=C(CCCl)NN=C1NCCCN1
FALSE

Kindly provide the recorded test outcome for the following molecule: C=C(C)COc1ccc2c(c1)CCC1C2CCC2(C)C(=O)/C(=N/O)CC12 (stereo not given)
FALSE

Recorded test call requested for Oc1ccc(-c2nc3ccc4ccccc4c3c3c2CCCC3)c(O)c1
FALSE

How did this test come out for O=C(OCC12CC3CC(CC(C3)C1)C2)c1ccc(NCc2cc(O)ccc2O)cc1 ?
TRUE

Hi, do you know how COC(=O)c1c(O)ccc2c1C1(Cc3ccccc3C1=O)C(O)O2 (stereo not given) came out in this test?
FALSE

Please state the recorded outcome for this molecule: Oc1cc(Cl)cc2cc(Br)cnc12
FALSE

Short answer needed: outcome of this test for Cc1ccc(C2[C@H]3C(=O)N(c4ccc(Cc5ccc(N6C(=O)[C@@H]7ON(c8ccccc8)C(c8ccc(C)cc8)[C@@H]7C6=O)cc5)cc4)C(=O)[C@H]3ON2c2ccccc2)cc1 (stereo not given in full) ?
FALSE

Record request — test call for O=c1cc(NCc2ccncc2)[nH]c(=O)[nH]1
FALSE

Test call, this molecule: CCn1c(SCC(=O)N/N=C/c2ccccc2)nc2ccccc2c1=O
FALSE

---

# Tested on: UACC-62
# methodNotes: NCI tumour cell line growth inhibition, 48 h
Active and inactive are the calls of the source. No stated cut-off is given here; in the data, active = GI50 up to about 1.1 µM and inactive = higher.
resultType: GI50

{"molecule": "COc1cccc(/C=C/C(=O)c2sc(C(N)=S)nc2C)c1O", "GI50": "> 100 µM (inactive)"}
{"molecule": "Cc1ccc(/C=N/Nc2nc3ccccc3s2)s1", "GI50": "74.6 µM (inactive)"}

Form field: GI50 recorded for CCC1C(=O)C[C@H]2[C@@H]3C(O)CC4=CC(=O)CC[C@]4(C)[C@H]3CC[C@]12C (stereo not given in full) with UACC-62 (enter value)
> 50 µM (inactive)

Lookup: GI50 / UACC-62 / Nc1nc(Cl)cc(NCC2(CO)CCC(OCc3ccccc3)C2)n1 (stereo not given)
21.4 µM (inactive)

Hello, I am looking for reported GI50 with UACC-62 for CC(=O)Nc1ccc(C2C(C(=O)Nc3ccccc3C)=C(C)NC(C)=C2C(=O)Nc2ccccc2C)cc1 . Could you help?
> 92.3 µM (inactive)

State its GI50 on UACC-62: CCOC(=O)/C(=C/c1ccc(N(C)C)cc1)N(CC)CC
74.5 µM (inactive)

Provide value of GI50 for this record tested with UACC-62: CC(Cc1ccc2c(c1)OCO2)N(C)C(=O)C1=CCN(C)CC1 (stereo not given)
> 100 µM (inactive)

So what GI50 did CCc1c(Cc2[nH]c(Cc3[nH]c(C=O)c(C)c3CC)c(CC)c2CC)[nH]c(C=O)c1C get with UACC-62?
> 100 µM (inactive)

Request - read-out GI50 | tested on UACC-62 | molecule O=C(CC/C(C/C(=N/O)c1ccc(F)cc1)=N/O)N(Cc1ccccc1)Cc1ccccc1
> 100 µM (inactive)

Lab note: need GI50 with UACC-62 for entry [N-]=[N+]=CC(=O)CCC(NC(=O)C(CCC(=O)C=[N+]=[N-])NC(=O)CCC(N)C(=O)O)C(=O)O (stereo not given) , please look it up.
> 100 µM (inactive)

---

Listed molecules paired with reported GI50
# Test system: OVCAR-3
# methodNotes: NCI tumour cell line growth inhibition, 48 h
Active and inactive are the calls of the source. Rule as the data show it: active = GI50 up to about 1.1 µM and inactive = higher.

Some entries whose results are on file:
{"molecule": "CCCNC(=O)Cn1c(C)cc2ccccc21", "GI50": "> 100 µM (inactive)"}
{"molecule": "CN(C)c1ccc(C2SCC(=O)N2c2nc3cc4sc(N5C(=O)CSC5c5ccc(N(C)C)cc5)nc4cc3s2)cc1 (stereo unspecified)", "GI50": "48.3 µM (inactive)"}
{"molecule": "O=C(CC/C(C/C(=N/O)c1ccc(F)cc1)=N/O)N(Cc1ccccc1)Cc1ccccc1", "GI50": "> 100 µM (inactive)"}
{"molecule": "CC(C)/C(=N\\[N+](C)(C)C)c1ccccc1", "GI50": "> 100 µM (inactive)"}
{"molecule": "O=S(=O)(N/C(=N\\O)Nc1ccc(Cl)cc1)c1cc2ccccc2s1", "GI50": "15 µM (inactive)"}

Could you now consider this next molecule?
Give its GI50 value. Item: Cc1c(S(=O)(=O)/N=C(\NN)Nc2ccc(Cl)cc2)sc2ccc(Cl)cc12
16.6 µM (inactive)

---

# Tested on: ACHN
# methodNotes: NCI tumour cell line growth inhibition, 48 h
The source made the active and inactive calls. Rule as the data show it: active = GI50 up to about 1.1 µM and inactive = higher.
Could you please pick one outcome from this set? active, inactive

{"compound": "Cn1nc(-c2ccccc2)nc1[N+](=O)[O-]", "className": "inactive"}
{"compound": "CC1(C)N=C(N)N=C(N)N1c1ccc(CCCCc2ccc(S(=O)(=O)F)cc2Cl)c(Cl)c1", "className": "inactive"}
{"compound": "O=C(Nc1ccccc1SC(/C=C/NNC1=NN=C(c2ccccc2)C(c2ccccc2)N1)c1ccccc1)c1ccc(Cl)cc1Cl (stereo not given)", "className": "inactive"}
{"compound": "COC1/C=C(C)/C=C/C(C)/C=C/C(=O)OC(/C(C)=C/C=C(\\C)CNC(=O)[C@H](CO)NC=O)C(C)/C=C/C=C/C(OC)CC/C=C(C)/C=C/C1 (stereo not given in full)", "className": "active"}
{"compound": "COc1ccc(C2C=C(c3ccccc3)Nc3nnnn32)cc1 (stereo not given)", "className": "inactive"}
{"compound": "CC(=O)NC(CCCNC(=O)N(C)N=O)C(=O)NCc1ccccc1 (stereo not given)", "className": "inactive"}
{"compound": "O=C(O)c1ccccc1/N=N/c1ccc2oc(=O)c(C(=O)Nc3ccccc3)cc2c1", "className": "inactive"}
{"compound": "O=C(NCc1ccccc1Cl)c1c(O)c2ccccc2[nH]c1=O", "className": "inactive"}

Just curious, what result did N#CCCOc1cccc(C2(N3CCCCC3)CCCCC2)c1 get here?
inactive

What is the recorded call for this compound in the test? Cc1ccc2oc(=O)c(-c3ccccc3)nc2c1
inactive

---

# Test system: SK-MEL-28
# methodNotes: NCI tumour cell line growth inhibition, 48 h
Calls of active or inactive are those of the source. Cut-off read from the data, not from the text of the source: active = GI50 up to about 1.1 µM and inactive = higher.
The categories you may choose from are 1 (yes) (active), 0 (no) (inactive)

In this assay, the call recorded for CC(=O)N1C2=CCCC2(C)c2ccccc21 (centres undefined) was what?
0 (no)

Which outcome was assigned to CCC(C)C(=O)c1c(O)c(C/C=C(\C)CCC=C(C)C)c(O)c2c(C(O)CC)cc(=O)oc12 (centres undefined) in this test?
0 (no)

Record lookup: outcome of this test for O=C1NC(=O)C(C(=O)C(=O)Nc2cc(Cl)ccc2Cl)C(=O)N1 ?
0 (no)

Dear colleague, could you share the recorded outcome for O=C(c1cc(Cl)cc(Cl)c1)N1CCN(C(=O)c2cc(Cl)cc(Cl)c2)C1=S when you have a moment?
0 (no)

Please state the recorded outcome for this compound: CCn1c(SCC(=O)N/N=C/c2ccccc2)nc2ccccc2c1=O
0 (no)

Kindly provide the recorded test outcome for the following compound: C=C(C)COc1ccc2c(c1)CCC1C2CCC2(C)C(=O)/C(=N/O)CC12 (centres undefined)
0 (no)

Write down the call the test reported for this compound. Item: CCC(Sc1cc(Cl)c(C)cc1S(=O)(=O)Nc1nc(N)nc(N(C)C)n1)C(=O)O (centres undefined)
0 (no)

Test call, this compound: Cc1n[nH]c(=O)n1/N=C\CC/C=N\n1c(C)n[nH]c1=O
0 (no)

In this assay, the call recorded for O=c1cc(NCc2ccncc2)[nH]c(=O)[nH]1 was what?
0 (no)

Per the assay record, what outcome was assigned to O=C1c2ccccc2C(=O)c2sc(Nc3ccc([N+](=O)[O-])cc3)nc21 ?
0 (no)

What call does the record list for CC1CC/C(=C\c2ccc(F)cc2)C2=C1C(c1ccc(F)cc1)n1c(s/c(=C\c3ccc(Cl)cc3)c1=O)=N2 (centres undefined) ?
0 (no)

Outcome? CC(=O)O[C@]12CCCCC1C1(O)C(O)CCCC[C@H]12 (some centres undefined)
0 (no)

State the result this test recorded for CCCn1cnc2c(SCC(=O)O)nc(N)nc21 .
0 (no)

Test call for this compound, please: Oc1nc(CC(O)c2ccc(Cl)c(Cl)c2)cc(-c2ccccc2)n1 (centres undefined)
0 (no)

Recorded test call requested for Cc1cccc(NC(=S)N/N=C2\C(=O)Nc3ccccc32)c1
0 (no)

Identify the outcome logged in this assay for the compound shown: COc1ccc2c(c1)c(=O)c1ccccc1n2/C=C/C(=O)O
0 (no)

What is the recorded call for this compound in the test? C=CC1(C)CCC(C(C)C(=O)C(C=C(C)C)OC(C)=O)C12C(=O)Oc1ccccc1C2=O (centres undefined)
0 (no)

I would be grateful if you could indicate the recorded call for COc1cc(C=C2C(C)=NN(c3cccc(Cl)c3)C23C(Cl)C(=O)N3c2nc3ccccc3s2)ccc1O (centres undefined) .
0 (no)

// return assay outcome for CC(C)=CCC/C(C)=C/CC/C(C)=C/CC(CO)N(C)CC/C=C(\C)CCC=C(C)C (centres undefined)
0 (no)

Entry CCOC(=O)C(SCCO)C(C(=O)OCC)n1ccc(=O)[nH]c1=O (centres undefined) : call = ?
0 (no)

Tell me the recorded outcome of this test for CC(SC1=CC(=O)c2c(O)ccc(O)c2C1=O)C(=O)O (centres undefined) .
0 (no)

Call for entry CC12Nc3c(Cl)cc(Cl)cc3N1C(=O)c1ccccc12 (centres undefined) :
0 (no)

This collection of values is drawn from ChEMBL document CHEMBL1201862.
